The reported numbers originate from paper PMC5540273.

Tested on: SGK3;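 note: KINOMEscan kinase panel screen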
Details: concentration: 1 μM, replicates: in singlicate; n = 1
The entries below are paired with their reported %Inh.
Result Type: %Inh (%)

[
  {
    "Compound": "COC(=O)c1c(-c2ccccc2)c2cc(OC)ccc2c(=O)n1Cc1ccccc1",
    "Result Type": "%Inh",
    "Value": 16
  },
  {
    "Compound": "Cc1c(O)cccc1Nc1ccnc2ccc(C(F)(F)F)cc12.Cl [GW466413]",
    "Result Type": "%Inh",
    "Value": 2
  },
  {
    "Compound": "CS(=O)(=O)c1ccc(-c2c(-c3ncn[nH]3)sc(N3CCOCC3)c2C#N)cc1",
    "Result Type": "%Inh",
    "Value": 24
  },
  {
    "Compound": "COc1cc2ncnc(Nc3ccc4nc(-c5ccccc5)[nH]c4c3)c2cc1OC.Cl [GW282450]",
    "Result Type": "%Inh",
    "Value": 0
  },
  {
    "Compound": "Cc1ccccc1-n1cnc2c(N)ncnc21 [SKF-97510]",
    "Result Type": "%Inh",
    "Value": 0
  },
  {
    "Compound": "NC(=O)c1nnc2ccccc2c1N",
    "Result Type": "%Inh",
    "Value": 44
  },
  {
    "Compound": "Cc1c(Cn2ccn3c(=O)cc(N4CCOCC4)nc23)cccc1C(F)(F)F [GSK2289044]",
    "Result Type": "%Inh",
    "Value": 4
  },
  {
    "Compound": "COc1cc2nccc(Nc3ccc(NC(=O)c4ccc(C)cc4)c(O)c3)c2cc1OC.Cl [GW440132]",
    "Result Type": "%Inh",
    "Value": 0
  }
]
